System: MALME-3M melanoma
experiment: NCI-60 one-dose screen, 48 h
settings: 10 µM
Compounds without any hit were thinned out: in the full panel of roughly 83,000, 20% have a hit. Active and inactive are the calls of the source. The calls were made as follows: active = growth percent below 10; inactive = the rest.
Select the correct class. Options are True (active), False (inactive) and nothing else.

Take a look at these entries with their results.
{"compound": "CCN1CCN(Cc2ccc(NC(=O)c3cccc(-n4cc(-c5ccc(NC(C)=O)nc5)nn4)c3)cc2C(F)(F)F)CC1", "target_desc": "MALME-3M melanoma", "category": "False"}
{"compound": "C=CC(=O)Nc1ccc(C(=O)/C=C/c2ccc(N(C)CCF)cc2)c(O)c1", "target_desc": "MALME-3M melanoma", "category": "True"}
{"compound": "O=C(NO)c1ccc(Cn2ccc3c(Nc4ccccc4)ncnc32)cc1", "target_desc": "MALME-3M melanoma", "category": "True"}
{"compound": "CCCS(=O)(=O)c1oc(-c2ccc(F)cc2)nc1S(=O)(=O)c1ccc(F)cc1", "target_desc": "MALME-3M melanoma", "category": "True"}

As a next step, examine the compound that follows.
Query string: Dear colleague, could you share the recorded outcome for CC1(c2ccccc2)NC(=O)N(CC(=O)Nc2ccc(C(=O)/C=C/C=C/c3ccccc3)cc2)C1=O (stereo not given) when you have a moment?
Result string: False

----------
System: A549/ATCC NSCLC
experiment: NCI-60 one-dose screen, 48 h
settings: 10 µM
About 83,000 compounds went through this panel and 20% of them were active in at least one assay; those are over-represented in the sample as a whole. Active and inactive are the calls of the source. How the source made its calls: active means growth percent below 10; inactive means the rest.
Select the correct class. Options are active, inactive and nothing else.

Take a look at these entries with their results.
{"cpd_smiles": "N#Cc1c(NC(=O)c2cccc(C(F)(F)F)c2)sc2c1CCC(O)=C2", "category": "inactive"}
{"cpd_smiles": "OCCNc1oc(-c2ccccc2)nc1[P+](c1ccccc1)(c1ccccc1)c1ccccc1", "category": "inactive"}
{"cpd_smiles": "Cc1ccc(F)cc1N/C=c1\\s/c(=C(\\C#N)C(=O)Nc2ccccc2)n(-c2ccccc2)c1=O", "category": "inactive"}
{"cpd_smiles": "Cn1cc(-c2cc(N)n3nc(-c4c[nH]c5ccc(Br)cc45)cc3n2)c2cc(Br)cnc21", "category": "active"}
{"cpd_smiles": "O=C(Cn1cc(CSc2nnc3oc4ccccc4n23)nn1)Nc1ccc(Br)cc1", "category": "inactive"}
{"cpd_smiles": "O=C(CNc1nc(-c2ccccc2)cs1)Nc1ccccc1", "category": "active"}
{"cpd_smiles": "[2H]C([2H])([2H])Oc1ccc2ncc(C#Cc3cncc(C(=O)Nc4ccc(CN5CCN(C)CC5)c(C(F)(F)F)c4)c3)n2n1", "category": "active"}
{"cpd_smiles": "COc1ccc(/C=N/N=C(\\C)c2ccc3c(c2)Nc2ccccc2S3)cc1O", "category": "inactive"}

As a next step, examine the compound that follows.
Query string: Dear colleague, could you share the recorded outcome for `O=C1Nc2cc(Cl)ccc2/C1=C/c1ccc(OCc2ccc(Br)cc2F)cc1` when you have a moment?
Result string: active

----------
Tested on: HCT-116 colon
experiment: NCI-60 one-dose screen, 48 h (100 = growth as untreated, 0 = no growth, -100 = all killed)
settings: 10 µM
This is part of a sample that, as a whole, favours compounds with a hit. Of some 83,000 tested, about 20% had one in any assay.
Param threshold (-60%) applies to growth; output yes (1) when value >= threshold, no (0) when value < threshold.

Take a look at these entries with their results.
{"molecule": "Brc1ccc(N/N=C/c2c[nH]c3ccccc23)nc1", "target_desc": "HCT-116 colon", "category": "yes (1)"}
{"molecule": "COc1ccc2[nH]c(O)c(N=NC(=O)COc3ccc(NC(=O)Nc4ccc(Cl)cc4)cc3)c2c1", "target_desc": "HCT-116 colon", "category": "yes (1)"}
{"molecule": "O=C(c1ccc(Cl)cc1)C1[C@H](c2ccc(Br)cc2)[C@@H](c2ccccc2)NC12C(=O)Nc1ccccc12 (stereo partly drawn)", "target_desc": "HCT-116 colon", "category": "yes (1)"}

Query string: Dear colleague, could you confirm whether `C=C(C)[C@@H]1CC[C@]2(C(=O)OC)CC[C@]3(C)[C@H](CC[C@@H]4[C@@]5(C)CC[C@H](N)C(C)(C)[C@@H]5CC[C@]43C)[C@@H]12` has growth at or above -60%?
Result string: no (0)

Query string: Dear colleague, could you confirm whether `N#Cc1c(NC(=O)c2ccc(C(O)(C(F)(F)F)C(F)(F)F)cc2)sc2c1CCC(=O)C2` has growth at or above -60%?
Result string: no (0)

Query string: Dear colleague, could you confirm whether CN(C)c1ccc(/C=C/C(=O)c2ccc(NC(=O)CN3C(=O)NC(C)(c4ccccc4)C3=O)cc2)cc1 (stereo not drawn) has growth at or above -60%?
Result string: yes (1)

Query string: Dear colleague, could you confirm whether `CC(=C(c1ccc(OCCN2CCCCCC2)cc1)c1ccc(OCCN2CCCCCC2)cc1)c1ccc(Cl)cc1` has growth at or above -60%?
Result string: no (0)

Query string: Dear colleague, could you confirm whether `COc1ccc(-c2cc(C(=O)N=Nc3c(O)[nH]c4ccccc34)c3ccccc3n2)cc1` has growth at or above -60%?
Result string: yes (1)
